System: HCT-116
Assay: Antiproliferative activity against BRCA2-deficient human HCT-116 cells assessed as inhibition of cell proliferation incubated for 5 days by MTT assay
Assay type: functional, cell-based
Settings: HCT-116, 120 h
So basically: is IC50 under 9 µM? Then Fulfilled. Not under? Then Not fulfilled.

Record excerpt, results attached:
I'd appreciate it if you could check whether `COc1ccc(F)cc1-c1cc(C)ncc1C(=O)Nc1nnc(OC2CC3(CCN(C(=O)c4cc(Cc5n[nH]c(=O)c6ccccc56)ccc4F)CC3)C2)s1` has IC50 smaller than 9 µM.
Fulfilled

Next compound up: `COc1ccc(Cl)cc1-c1cc(C)ncc1C(=O)Nc1nnc(OC2CC3(CCN(C(=O)c4cc(Cc5n[nH]c(=O)c6ccccc56)ccc4F)CC3)C2)s1`
Fulfilled

Check `COc1cccc(F)c1-c1cc(C)ncc1C(=O)Nc1nnc(OC2CC3(CCN(C(=O)c4cc(Cc5n[nH]c(=O)c6ccccc56)ccc4F)CC3)C2)s1` too.
Fulfilled

Would you kindly repeat that for `CO[C@@H]1[C@@H](OC(N)=O)[C@@H](O)[C@H](Oc2ccc3c(O)c(NC(=O)c4ccc(O)c(CC=C(C)C)c4)c(=O)oc3c2C)OC1(C)C` ?
Not fulfilled

Now consider `COc1ccccc1-c1cnccc1C(=O)Nc1nnc(OCC2CCN(C(=O)c3cc(Cc4n[nH]c(=O)c5ccccc45)ccc3F)CC2)s1` .
Not fulfilled

Read the next record carefully.
# TODO verify IC50 < 9 µM strictly for this compound: `COc1ccccc1-c1cnccc1C(=O)Nc1nnc(OCc2ccc(Cl)cc2)s1`
Not fulfilled

====

Assay: Tmax in Sprague-Dawley rat at 1 mg/kg, iv by LC-MS/MS analysis
Assay type: ADME, organism-based
Details: in vivo
QUANTITY_MEASURED: Tmax (min)
Supply the numeric figure in min, leaving out any unit text.

What value of Tmax has been recorded for this entry: `COc1ccc(Cl)cc1-c1cc(C)ncc1C(=O)Nc1nnc(OCC2CCN(C(=O)c3cc(Cc4n[nH]c(=O)c5ccccc45)ccc3F)CC2)s1`
4.8

====

Assay: Metabolic stability in human liver microsome assessed as intrinsic clearance
Type: ADME
Settings: liver microsomes, read-out: CLH
QUANTITY_MEASURED: CLint scaled (L/h/kg)
A number alone suffices; assume L/h/kg.

Reported CLint scaled for `COc1ccc(Cl)cc1-c1cc(C)ncc1C(=O)Nc1nnc(OCC2CCN(C(=O)c3cc(Cc4n[nH]c(=O)c5ccccc45)ccc3F)CC2)s1` : what is it?
40.9

====

Test: Metabolic stability in mouse liver microsome assessed as half life
Type: ADME
Conditions: liver microsomes
QUANTITY_MEASURED: half-life
Show the value, then the unit it is measured in.

What value of half-life has been recorded for this entry: `COc1ccc(Cl)cc1-c1cc(C)ncc1C(=O)Nc1nnc(OCC2CCN(C(=O)c3cc(Cc4n[nH]c(=O)c5ccccc45)ccc3F)CC2)s1`
5.1 min

====

Experiment: Stability in rat plasma assessed as half life
Assay type: ADME, cell-free
QUANTITY_MEASURED: half-life (h)
Express the result in h but write the number alone.

# query: half-life of entry `COc1ccc(Cl)cc1-c1cc(C)ncc1C(=O)Nc1nnc(OCC2CCN(C(=O)c3cc(Cc4n[nH]c(=O)c5ccccc45)ccc3F)CC2)s1`
38.5

====

Assay: Apparent volume of distribution in Sprague-Dawley rat at 1 mg/kg, iv by LC-MS/MS analysis
Format: ADME, organism-based
Conditions: in vivo, read-out: Vz
QUANTITY_MEASURED: Vd
Returns: string containing the number followed by the unit.

Using the record for `COc1ccc(Cl)cc1-c1cc(C)ncc1C(=O)Nc1nnc(OCC2CCN(C(=O)c3cc(Cc4n[nH]c(=O)c5ccccc45)ccc3F)CC2)s1` , report its Vd.
3.97 L/kg
